Entries and their IC50 values follow.
target: UCHL1 (Homo sapiens, UniProt P09936); test: DUB biochemical IC50 assay, UCHL1
Sequence (P09936 whole entry, species assumed): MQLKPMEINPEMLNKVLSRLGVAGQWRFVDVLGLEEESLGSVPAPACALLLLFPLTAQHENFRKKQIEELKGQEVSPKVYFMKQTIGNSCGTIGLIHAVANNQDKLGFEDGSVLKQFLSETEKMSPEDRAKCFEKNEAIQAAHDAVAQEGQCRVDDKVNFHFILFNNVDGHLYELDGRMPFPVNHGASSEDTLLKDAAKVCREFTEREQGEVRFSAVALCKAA
metric: IC50 (µM)

compound=N#Cc1cccc(-c2nnc(C(=O)N[C@@H]3C[C@@H](CF)N(C#N)C3)o2)c1 result_operator== quantitative_result=200
compound=COC[C@@H]1C[C@@H](NC(=O)c2nnc(-c3cccc(C#N)c3)o2)CN1C#N result_operator=> quantitative_result=300
compound="N#CN1CC[C@H](C(=O)Nc2ncc(-c3ccccc3)s2)C1 [E, reference compound]" result_operator== quantitative_result=0.25
compound="CC1CC(C(=O)Nc2ncc(-c3ccccc3)s2)CN1C#N (stereo not shown) [G, reference compound]" result_operator== quantitative_result=6.8

---

Entries annotated with measured IC50
biological target: Cathepsin L (Homo sapiens, UniProt P07711); assay: Cathepsin IC50, cathepsin L; format: biochemical
Sequence (P07711 114-333, species assumed): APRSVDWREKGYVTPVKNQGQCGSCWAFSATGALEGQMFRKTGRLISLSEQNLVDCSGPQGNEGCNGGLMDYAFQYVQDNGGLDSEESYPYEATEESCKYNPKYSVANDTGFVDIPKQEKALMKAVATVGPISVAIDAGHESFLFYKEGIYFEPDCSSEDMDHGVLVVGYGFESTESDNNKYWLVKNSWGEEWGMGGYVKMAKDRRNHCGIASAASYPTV
metric: IC50 (µM)

compound="N#Cc1cccc(-c2nnc(C(=O)N[C@@H]3C[C@@H](CF)N(C#N)C3)o2)c1 [Example 3]" metric=IC50 quantitative_result=9.9
compound="N#Cc1cccc(-c2ccn3c(C(=O)N[C@@H]4CCN(C#N)C4)cnc3c2)c1 [D]" metric=IC50 quantitative_result=2.3
compound="N#CN1CCC(NC(=O)c2cc(-c3cccc(Cl)c3)no2)C1 (stereo not drawn) [B, reference compound]" metric=IC50 quantitative_result=0.79

---

List of Selectivity preference for USP30 v cathepsins values.
test system: Cathepsins B, K, L, S, V; assay: Cathepsin IC50, range over B, K, L, S, V; format: biochemical; settings: range over cathepsins B, K, L, S, V
metric: Selectivity preference for USP30 v cathepsins

compound="N#CN1CCC(C(=O)Nc2nnc(-c3ccccc3)s2)C1 (stereo not drawn) [F, reference compound]" result=0.34-14
compound=N#Cc1cccc(-c2nnc(C(=O)N[C@@H]3C[C@@H](CF)N(C#N)C3)o2)c1 result=760-19700
compound=C[C@@H]1C[C@@H](NC(=O)c2nnc(-c3cccc(C#N)c3)o2)CN1C#N result=900-10300

---

molecular target: Cathepsin K (Homo sapiens, UniProt P43235); experiment: Cathepsin IC50, cathepsin K; assay type: biochemical
Sequence (P43235 115-329, species assumed): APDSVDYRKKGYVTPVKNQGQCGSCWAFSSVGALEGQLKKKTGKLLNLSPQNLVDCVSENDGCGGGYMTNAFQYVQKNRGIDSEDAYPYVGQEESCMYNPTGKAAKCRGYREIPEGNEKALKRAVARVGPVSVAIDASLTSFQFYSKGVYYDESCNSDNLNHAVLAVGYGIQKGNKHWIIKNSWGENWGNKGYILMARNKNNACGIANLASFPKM
Below, each of the compounds is paired with its reported IC50 value.
metric: IC50 (µM)

compound=N#Cc1cccc(-c2nnc(C(=O)N[C@@H]3C[C@@H](CF)N(C#N)C3)o2)c1 quantitative_result=18.8
compound="N#CN1CCC(NC(=O)c2cc(-c3cccc(Cl)c3)no2)C1 (stereo not shown) [B, reference compound]" quantitative_result=1.1
compound=COC[C@@H]1C[C@@H](NC(=O)c2nnc(-c3cccc(C#N)c3)o2)CN1C#N quantitative_result=113
compound="COc1cccc(-c2cc(C(=O)N[C@@H]3CCN(C#N)C3)on2)c1 [A, reference compound]" quantitative_result=0.79

---

target: Cathepsin B (Homo sapiens, UniProt P07858); assay: Cathepsin IC50, cathepsin B; assay type: biochemical
metric: IC50

molecule=COC[C@@H]1C[C@@H](NC(=O)c2nnc(-c3cccc(C#N)c3)o2)CN1C#N result="> 300 µM"
molecule="C[C@H]1CN(C#N)C[C@@H]1NC(=O)c1cnc(-c2ccccc2)s1 [C, reference compound]" result="4.8 µM"
molecule=COc1ccc(C#N)cc1-c1nnc(C(=O)N[C@@H]2C[C@@H](C)N(C#N)C2)o1 result="> 300 µM"
